These entries and their values trace back to ChEMBL document CHEMBL1157291.

Can you tell me MIC for the items I'm about to list?
- System: Enterococcus faecalis
- experimentalProtocol: Antimicrobial activity against vancomycin-sensitive Enterococcus faecalis CL8516 after 20 hrs
- Type: functional

[ask] // Input: CCCC#CC#CC=C=CCCCCCCC(=O)O . Output its MIC only.
[reply] > 100 µg/mL

[ask] // Input: C=C/C(C)=C/[C@@]1(C)SC(=O)C(C)=C1O . Output its MIC only.
[reply] > 250 µg/mL

[ask] // Input: CCCC#CC#CC=C=CCCCCCCCC(=O)O . Output its MIC only.
[reply] > 100 µg/mL

[ask] // Input: CCC(O)C#CC#CC=C=CCCCCC(=O)O (centres undefined) . Output its MIC only.
[reply] > 250 µg/mL
